Target: T1, MSR1 on differentiated THP-1 cells (Homo sapiens, UniProt P21757)
T1 construct: endogenous in cells; host or cells: THP-1 cells differentiated with PMA
T1 sequence (P21757 1-451): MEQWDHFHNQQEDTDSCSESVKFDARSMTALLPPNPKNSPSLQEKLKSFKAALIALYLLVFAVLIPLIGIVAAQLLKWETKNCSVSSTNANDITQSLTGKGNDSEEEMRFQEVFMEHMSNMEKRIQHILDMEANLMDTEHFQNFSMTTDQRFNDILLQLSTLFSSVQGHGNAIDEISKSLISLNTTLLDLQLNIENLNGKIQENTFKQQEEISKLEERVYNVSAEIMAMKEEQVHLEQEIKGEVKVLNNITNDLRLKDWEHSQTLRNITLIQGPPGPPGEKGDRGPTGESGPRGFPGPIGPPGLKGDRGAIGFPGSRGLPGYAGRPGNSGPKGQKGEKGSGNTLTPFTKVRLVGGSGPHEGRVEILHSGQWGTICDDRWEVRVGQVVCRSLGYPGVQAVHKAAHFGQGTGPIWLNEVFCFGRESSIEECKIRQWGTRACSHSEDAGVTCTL
Experiment: Binding and internalization of cell-surface expressed MSR1 in differentiated THP-1 cells
Type: cell-based
Settings: 10 μg/mL antibody, 37° C.
measuredEndpoint: Total Internalized RFU

[[record]]
molecule = "H1H27747P-N297Q (antibody, V domains shown) VH: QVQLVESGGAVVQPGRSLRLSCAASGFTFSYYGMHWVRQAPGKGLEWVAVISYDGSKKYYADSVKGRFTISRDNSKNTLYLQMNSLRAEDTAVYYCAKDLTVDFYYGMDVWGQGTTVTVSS VL: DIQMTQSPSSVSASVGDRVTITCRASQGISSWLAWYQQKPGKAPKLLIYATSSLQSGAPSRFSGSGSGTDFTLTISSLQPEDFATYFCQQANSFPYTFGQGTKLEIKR"
readoutvalue = "3444330 RFU"

[[record]]
molecule = "H1H27734P-N297Q: one of \"Twelve anti-MSR1 antibodies\"; \"made with an N297Q single point mutation in human Fcγ portion\" (antibody, V domains shown) VH: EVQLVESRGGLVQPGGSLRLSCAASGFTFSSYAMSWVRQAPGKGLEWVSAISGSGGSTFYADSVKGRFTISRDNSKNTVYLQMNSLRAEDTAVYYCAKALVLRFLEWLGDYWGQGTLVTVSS VL: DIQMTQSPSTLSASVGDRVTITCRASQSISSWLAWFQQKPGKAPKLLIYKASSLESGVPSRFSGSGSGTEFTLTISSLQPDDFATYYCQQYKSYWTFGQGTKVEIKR"
readoutvalue = "737425 RFU"

